test: solvent given as SMILES; conditions: in CCCCCl
I'd be grateful if you could share measured solvation free energy, 298 K for these entries.
Value expressed in kcal/mol; do not type the unit.

Enquiry: Need solvation free energy, 298 K, item CCOC(C)=O
Return: -4.32

Enquiry: Also need CCCCCC , thanks.
Return: -3.91

Enquiry: Also need CCC(C)Cl (stereo not drawn) , thanks.
Return: -4.16

Enquiry: Also need CCCCCCO , thanks.
Return: -5.99

Enquiry: Also need CCOCC , thanks.
Return: -3.4

Enquiry: Also need CC(C)=O , thanks.
Return: -3.62

Enquiry: Also need O=S(=O)(c1ccccc1)c1ccccc1 , thanks.
Return: -14.1

Enquiry: Also need CC#N , thanks.
Return: -3.63

Enquiry: Also need CCO , thanks.
Return: -3.07

Enquiry: Also need c1ccc2cc3ccccc3cc2c1 , thanks.
Return: -11.2

Enquiry: Also need CCC(C)O (stereo not drawn) , thanks.
Return: -4.17

Enquiry: Also need CCCCC , thanks.
Return: -3.22

Enquiry: Also need CCCCOC , thanks.
Return: -4.26

Enquiry: Also need CI , thanks.
Return: -3.44

Enquiry: Also need C1CCOCC1 , thanks.
Return: -4.71

Enquiry: Also need CCc1ccc2c(c1)C(=O)c1ccccc1C2=O , thanks.
Return: -13.5

Enquiry: Also need C1CCOC1 , thanks.
Return: -4.19

Enquiry: Also need c1cc2ccc3cccc4ccc(c1)c2c34 , thanks.
Return: -12.8

Enquiry: Also need CCI , thanks.
Return: -4.15

Enquiry: Also need CC(Cl)(Cl)Cl , thanks.
Return: -4.32

Enquiry: Also need C[N+](=O)[O-] , thanks.
Return: -4.07

Enquiry: Also need CCCCl , thanks.
Return: -3.68

Enquiry: Also need CCCCCCC , thanks.
Return: -4.61

====

assay: solvent given as SMILES; settings: in O=Cc1ccco1
We use -4 kcal/mol as the dividing line for solvation free energy, 298 K: on or above the line is MET, below is NOT MET.

Enquiry: Given the entry C#CCCCCC , answer whether its solvation free energy, 298 K meets or surpasses -4 kcal/mol.
Return: NOT MET

Enquiry: Also need CCCCC , thanks.
Return: MET

Enquiry: Also need CCCCCC , thanks.
Return: MET

Enquiry: Also need CCCCCCC , thanks.
Return: MET

Enquiry: Also need CCc1ccccc1 , thanks.
Return: NOT MET

Enquiry: Also need CCCCC1CCCCC1 , thanks.
Return: NOT MET

Enquiry: Also need CCCCCCCCCCCCCCCC , thanks.
Return: NOT MET

====

I'd be grateful if you could share measured solvation free energy, 298 K for these entries.
assay: solvent given as SMILES; details: in O

Enquiry: Need solvation free energy, 298 K, item c1ccc(-c2ccccc2)cc1
Return: -2.66 kcal/mol

Enquiry: Also need CCOC(=O)CC(=O)OCC , thanks.
Return: -6 kcal/mol

Enquiry: Also need O=C(c1ccc(Br)cc1)N(O)c1ccc(Cl)cc1 , thanks.
Return: -11.6 kcal/mol

Enquiry: Also need CCCc1ccc(O)cc1 , thanks.
Return: -5.21 kcal/mol

Enquiry: Also need Cc1ccc(C)c(O)c1 , thanks.
Return: -5.92 kcal/mol

Enquiry: Also need CCCCCCCCBr , thanks.
Return: 0.52 kcal/mol

Enquiry: Also need C=C(C)C1CC=C(C)CCC=C(C)CC1 (stereo unspecified) , thanks.
Return: -0.37 kcal/mol

Enquiry: Also need COC(=O)c1ccc(Br)cc1 , thanks.
Return: -4.26 kcal/mol

Enquiry: Also need C=CC=CC=C , thanks.
Return: 0.2 kcal/mol

Enquiry: Also need CCCNCc1ccc(C)cc1 , thanks.
Return: -5.73 kcal/mol

Enquiry: Also need Clc1cc(Cl)c(-c2ccccc2)c(Cl)c1 , thanks.
Return: -2.16 kcal/mol

Enquiry: Also need C=C(C)C(CC=C(C)C)COC(C)=O (stereo unspecified) , thanks.
Return: -3.36 kcal/mol

Enquiry: Also need CCCCC(=O)CC(C)=O , thanks.
Return: -4.28 kcal/mol

Enquiry: Also need CC(C)CN(CC(C)C)N=O , thanks.
Return: -4.84 kcal/mol

Enquiry: Also need C=CC(C)C , thanks.
Return: 1.84 kcal/mol

Enquiry: Also need CC(=O)OC1C2(C)CCC(C2)C1(C)C (stereo unspecified) , thanks.
Return: -2.69 kcal/mol

====

I'd be grateful if you could share measured solvation free energy, 298 K for these entries.
assay: solvent given as SMILES; details: in CCCCCCCCC=CCCCCCCCC(=O)OCC(COC(=O)CCCCCCCC=CCCCCCCCC)OC(=O)CCCCCCCC=CCCCCCCCC
Value expressed in kcal/mol; do not type the unit.

Enquiry: Need solvation free energy, 298 K, item Clc1cc(Cl)c(Cl)c(Cl)c1Cl
Return: -8.79

Enquiry: Also need ClC1=C(Cl)C2(Cl)C3C(Cl)C=CC3C1(Cl)C2(Cl)Cl (configuration not stated) , thanks.
Return: -13.5

Enquiry: Also need Clc1ccc(-c2ccccc2)cc1 , thanks.
Return: -9.7

Enquiry: Also need CCCCC , thanks.
Return: -2.77

Enquiry: Also need c1ccc2ccccc2c1 , thanks.
Return: -7.56

Enquiry: Also need CCOC(C)=O , thanks.
Return: -3.72

Enquiry: Also need CCCCCCCCCCCCCCCCCCCCCC , thanks.
Return: -13.4

Enquiry: Also need ClC1=C(Cl)C2(Cl)C3C4OC4C(Cl)C3C1(Cl)C2(Cl)Cl (configuration not stated) , thanks.
Return: -13

Enquiry: Also need c1ccc(-c2ccccc2)cc1 , thanks.
Return: -8.8

Enquiry: Also need CCCCl , thanks.
Return: -3.25

Enquiry: Also need CCCCCCl , thanks.
Return: -4.62

Enquiry: Also need Clc1ccc(C(c2ccc(Cl)cc2)C(Cl)(Cl)Cl)cc1 , thanks.
Return: -14.9

Enquiry: Also need Clc1cccc(Cl)c1Cl , thanks.
Return: -7.12

Enquiry: Also need Brc1ccc(Br)cc1 , thanks.
Return: -7.01

Enquiry: Also need Cc1cccc2c(C)cccc12 , thanks.
Return: -9.3

Enquiry: Also need CC(C)=O , thanks.
Return: -3.07

Enquiry: Also need CCCCCC , thanks.
Return: -3.45

====

assay: solvent given as SMILES; conditions: in CCOC(=O)c1ccccc1C(=O)OCC
We use -4 kcal/mol as the dividing line for solvation free energy, 298 K: on or above the line is met, below is not met.

Enquiry: Given the entry CCc1ccccc1 , answer whether its solvation free energy, 298 K meets or surpasses -4 kcal/mol.
Return: not met

Enquiry: Also need CCCCC , thanks.
Return: met

Enquiry: Also need CCCCCC , thanks.
Return: met

Enquiry: Also need CCCCCCC , thanks.
Return: met

Enquiry: Also need CC(C)=O , thanks.
Return: met

Enquiry: Also need CCO , thanks.
Return: met

Enquiry: Also need CCC(C)O (stereo not given) , thanks.
Return: not met

Enquiry: Also need CCCCCCCCC , thanks.
Return: not met

====

I'd be grateful if you could share measured solvation free energy, 298 K for these entries.
experiment: solvent given as SMILES; conditions: in Ic1ccccc1
Value expressed in kcal/mol; do not type the unit.

Enquiry: Need solvation free energy, 298 K, item C=C(C)C
Return: -1.91

Enquiry: Also need CCCCC , thanks.
Return: -2.61

Enquiry: Also need CCCCCCCC , thanks.
Return: -4.74

Enquiry: Also need CCI , thanks.
Return: -4.29

Enquiry: Also need C[N+](=O)[O-] , thanks.
Return: -4.04

Enquiry: Also need CCO , thanks.
Return: -3.04

====

I'd be grateful if you could share measured solvation free energy, 298 K for these entries.
assay: solvent given as SMILES; conditions: in c1ccncc1
Value expressed in kcal/mol; do not type the unit.

Enquiry: Need solvation free energy, 298 K, item CCCCCCCCC
Return: -5.13

Enquiry: Also need CCO , thanks.
Return: -5.05

Enquiry: Also need CCCCCCCC , thanks.
Return: -4.49

Enquiry: Also need CCCCCCC , thanks.
Return: -3.9

Enquiry: Also need CC(C)CCC(C)C , thanks.
Return: -4.06

Enquiry: Also need C[N+](=O)[O-] , thanks.
Return: -5.08

Enquiry: Also need CCCCCC , thanks.
Return: -3.27

Enquiry: Also need CC(C)C(C)C(C)C , thanks.
Return: -4.17

Enquiry: Also need CCCCC , thanks.
Return: -2.64

====

I'd be grateful if you could share measured solvation free energy, 298 K for these entries.
assay: solvent given as SMILES; details: in Cc1ccccc1
Value expressed in kcal/mol; do not type the unit.

Enquiry: Need solvation free energy, 298 K, item [N]=O
Return: 0.76

Enquiry: Also need CCI , thanks.
Return: -4.2

Enquiry: Also need CCCCCCCCC , thanks.
Return: -5.95

Enquiry: Also need CCCCCC , thanks.
Return: -3.87

Enquiry: Also need CC(C)CCC(C)C , thanks.
Return: -4.76

Enquiry: Also need CC(C)C(C)C(C)C , thanks.
Return: -4.85

Enquiry: Also need CCCCCCC , thanks.
Return: -4.57

Enquiry: Also need CCO , thanks.
Return: -3.22

Enquiry: Also need CCCCC , thanks.
Return: -3.15

Enquiry: Also need CCCCCCCC , thanks.
Return: -5.29

Enquiry: Also need C[N+](=O)[O-] , thanks.
Return: -4.27
